# test: Stability of the compound in simulated gastric fluid at pH 1.2 assessed as drug degradation by UPLC-UV analysis
# Format: ADME
measurement_name: half-life

INPUT: Dear colleague, I am looking for the recorded half-life of the following compound: CC[C@H](C)[C@H](NC(=O)[C@H](CCCN=C(N)N)NC(=O)[C@H](CCCN=C(N)N)NC(=O)[C@H](CC(C)C)NC(=O)[C@H](Cc1ccccc1)NC(=O)CNC(=O)CNC(=O)[C@@H](N)Cc1ccc(O)cc1)C(=O)N[C@@H](CCCN=C(N)N)C(=O)N1CCC[C@H]1C(=O)N[C@@H](CCCCN)C(=O)N[C@@H](CC(C)C)C(=O)N[C@@H](CCCCN)C(N)=O
OUTPUT: < 15 min

###

# experimental_target: Kappa-type opioid receptor (Mus musculus, UniProt P33534)
# Sequence (P33534 whole entry): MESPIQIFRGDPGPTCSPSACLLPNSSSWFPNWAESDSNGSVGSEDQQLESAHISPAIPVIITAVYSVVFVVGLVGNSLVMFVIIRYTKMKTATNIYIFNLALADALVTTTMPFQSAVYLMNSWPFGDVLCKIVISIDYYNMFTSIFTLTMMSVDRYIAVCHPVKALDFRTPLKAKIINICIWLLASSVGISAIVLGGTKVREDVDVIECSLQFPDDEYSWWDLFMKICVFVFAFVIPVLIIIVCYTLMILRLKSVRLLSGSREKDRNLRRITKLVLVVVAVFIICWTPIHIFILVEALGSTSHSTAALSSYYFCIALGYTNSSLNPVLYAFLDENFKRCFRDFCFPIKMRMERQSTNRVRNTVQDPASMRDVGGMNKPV
# test: Displacement of [3H]-diprenorphine from mouse KOR expressed in HEK293 cell membranes by radioligand binding assay relative to control
# Parameters: species or system Cell membrane
# reported_conditions: hek293
Bridge positions count the residues as written; N and C are the ends. Square brackets hold non-standard residues; d marks the D form. Peptide text beside a SMILES is read from it.
Give Ki for every item shown.

Please review the following examples before continuing.
[[record]]
compound = "CC[C@H](C)[C@@H]1NC(=O)[C@@H]2CCCN2C(=O)[C@H](Cc2ccccc2)NC(=O)CNC(=O)CNC(=O)[C@H](Cc2ccc(O)cc2)NC(=O)[C@H]([C@@H](C)O)NC(=O)[C@@H]2CSSC[C@H](NC1=O)C(=O)N[C@@H](Cc1ccccc1)C(=O)N1CCC[C@H]1C(=O)N[C@@H](CC(=O)O)C(=O)NCC(=O)N[C@@H](CCCNC(=N)N)C(=O)N2 (cyclo(CFPDGRCTYGGFPI); disulfide 1-7)"
experimental_target = "Kappa-type opioid receptor (Mus musculus, UniProt P33534)"
experimental_result = "> 10 µM"

[[record]]
compound = "CC[C@H](C)[C@@H]1NC(=O)[C@@H]2CCCN2C(=O)[C@@H]2CCCN2C(=O)[C@H]([C@@H](C)CC)NC(=O)[C@H](CO)NC(=O)[C@H](C)NC(=O)[C@H]([C@@H](C)O)NC(=O)[C@@H]2CSSC[C@H](NC1=O)C(=O)N[C@@H](Cc1ccc(O)cc1)C(=O)NCC(=O)NCC(=O)N[C@@H](Cc1ccccc1)C(=O)N[C@@H](CCCNC(=N)N)C(=O)N2 (cyclo(ASIPPICYGGFRCT); disulfide 7-13)"
experimental_target = "Kappa-type opioid receptor (Mus musculus, UniProt P33534)"
experimental_result = "> 10 µM"

[[record]]
compound = "CC[C@H](C)[C@@H]1NC(=O)[C@@H]2CCCN2C(=O)[C@@H]2CCCN2C(=O)[C@H]([C@@H](C)CC)NC(=O)[C@H](CO)NC(=O)[C@H](C)NC(=O)[C@H]([C@@H](C)O)NC(=O)[C@@H]2CSSC[C@H](NC1=O)C(=O)N[C@H](Cc1ccccc1)C(=O)N[C@H](Cc1ccccc1)C(=O)N[C@H](CC(C)C)C(=O)N[C@H](CCCCN)C(=O)N[C@@H](CCCNC(=N)N)C(=O)N2 (cyclo(ASIPPIC[dF][dF][dL][dK]RCT); disulfide 7-13)"
experimental_target = "Kappa-type opioid receptor (Mus musculus, UniProt P33534)"
experimental_result = "> 10 µM"


Continue with the next compound.
INPUT: For the compound CC[C@H](C)[C@@H]1NC(=O)[C@H](CCCNC(=N)N)NC(=O)[C@H](CCCNC(=N)N)NC(=O)[C@H](CC(C)C)NC(=O)[C@H](Cc2ccccc2)NC(=O)CNC(=O)CNC(=O)[C@H](Cc2ccc(O)cc2)NC(=O)[C@@H]2CSSC[C@H](NC1=O)C(=O)N[C@@H](Cc1ccccc1)C(=O)N1CCC[C@H]1C(=O)N[C@@H](CC(=O)O)C(=O)NCC(=O)N[C@@H](CCCNC(=N)N)C(=O)N2 , what Ki is on record?
OUTPUT: 3.2 µM

###

# experimental_target: UniProt:P33534
# test: Displacement of [3H]-diprenorphine from mouse KOR expressed in HEK293 cell membranes by radioligand binding assay relative to control
# Set-up: species or system Cell membrane
# reported_conditions: hek293
pKi: −log10 of the molar value. Bridge positions count the residues as written; N and C are the ends. Square brackets hold non-standard residues; d marks the D form. Peptide text beside a SMILES is read from it. dNle = CCCC[C@@H](N)C(=O)O
measurement_name: pKi

INPUT: // pKi lookup, key: CCCC[C@H]1NC(=O)[C@@H](Cc2ccccc2)NC(=O)[C@@H](Cc2ccccc2)NC(=O)[C@@H]2CSSC[C@H](NC(=O)[C@H](CCCNC(=N)N)NC(=O)[C@@H](CCCNC(=N)N)NC1=O)C(=O)N[C@@H]([C@@H](C)O)C(=O)N[C@@H](C)C(=O)N[C@@H](CO)C(=O)N[C@@H]([C@@H](C)CC)C(=O)N1CCC[C@H]1C(=O)N1CCC[C@H]1C(=O)N[C@@H]([C@@H](C)CC)C(=O)N2 (cyclo(ASIPPIC[dF][dF][dNle][dR]RCT); disulfide 7-13)
OUTPUT: < 5.00
